Give measured CC50 at 24 h for each item. Keep answers brief.
Test Method Notes: Cytotoxicity of lipophenols (MTT cell viability, 24 h)
Assay type: cell-based, human
Run Parameters: human, ARPE-19 cells; 24 h, serum free medium, 0–160 µM, MTT; mean ± SD, n ≥ 3; read-out: ARPE-19 CC50 (concentration of lipophenol killing 50% of ARPE-19 cells)
Numbers only; they are read as µM.

Given item CCCCC/C=C\C/C=C\CCCCCCCC(=O)O[C@H]1Cc2c(O)cc(O)cc2O[C@@H]1c1ccc(O)c(O)c1 [Cat-3-LA (9), catechin-3-LA] , the value recorded as its CC50 at 24 h is 149

Given item CC/C=C\C/C=C\C/C=C\C/C=C\C/C=C\C/C=C\CCC(=O)Oc1c(-c2ccc(O)c(O)c2)oc2cc(O)cc(O)c2c1=O [Quer-3-DHA (15)] , the value recorded as its CC50 at 24 h is 134

Given item CC/C=C\C/C=C\C/C=C\CCCCCCCC(=O)Oc1c(-c2ccc(O)c(O)c2)oc2cc(O)cc(O)c2c1=O [Quer-3-ALA (14), quercetin-3-ALA] , the value recorded as its CC50 at 24 h is 69.4

----------
Tested on: ARPE-19 cells
Test Method Notes: Protection against ROS production (DCFDA probe, H2O2 stress)
Format: cell-based, human
Run Parameters: Homo sapiens, ARPE-19, 1 h pre-incubation, H2O2 600 µM for 4 h, DCFDA; mean ± SD, n ≥ 3; read-out: ROS production IC50 (concentration needed to inhibit 50% of the ROS induced by H2O2)
Give measured IC50 for each item. Keep answers brief.

Given item CCCCC/C=C\C/C=C\CCCCCCCC(=O)Oc1c(-c2ccc(O)c(O)c2)oc2cc(O)cc(O)c2c1=O , the value recorded as its IC50 is ~60 µM

Given item CC/C=C\C/C=C\C/C=C\CCCCCCCC(=O)Oc1c(-c2ccc(O)c(O)c2)oc2cc(O)cc(O)c2c1=O , the value recorded as its IC50 is ~60 µM

Given item CC/C=C\C/C=C\C/C=C\C/C=C\C/C=C\C/C=C\CCC(=O)Oc1c(-c2ccc(O)c(O)c2)oc2cc(O)cc(O)c2c1=O , the value recorded as its IC50 is ~60 µM

----------
Test Method Notes: Cytotoxicity of lipophenols (MTT cell viability, 24 h)
Type: cell-based, human
Run Parameters: human, ARPE-19 cells; 24 h, serum free medium, 0–160 µM, MTT; mean ± SD, n ≥ 3; read-out: ARPE-19 CC50 (concentration of lipophenol killing 50% of ARPE-19 cells)
Measured Attribute: CC50 at 24 h

Given item Oc1cc(O)c2c(c1)O[C@H](c1ccc(O)c(O)c1)[C@@H](O)C2 [(+)-catechin, reference compound] , the value recorded as its CC50 at 24 h is > 160 µM

Given item Oc1ccc(C=Cc2cc(O)cc(O)c2)cc1 [Resveratrol, 3,4′,5-trihydroxystilbene, reference compound] , the value recorded as its CC50 at 24 h is > 160 µM

Given item CCCCC/C=C\C/C=C\CCCCCCCC(=O)Oc1c(-c2ccc(O)c(O)c2)oc2cc(O)cc(O)c2c1=O , the value recorded as its CC50 at 24 h is > 160 µM

Data credit: paper PMC6315395
